FYI, the data here is from patent US11427548B2.

Target: Androgen Receptor (Homo sapiens, UniProt P10275)
Construct: endogenous in cells; host or cells: VCaP cells
Sequence (P10275 1-920): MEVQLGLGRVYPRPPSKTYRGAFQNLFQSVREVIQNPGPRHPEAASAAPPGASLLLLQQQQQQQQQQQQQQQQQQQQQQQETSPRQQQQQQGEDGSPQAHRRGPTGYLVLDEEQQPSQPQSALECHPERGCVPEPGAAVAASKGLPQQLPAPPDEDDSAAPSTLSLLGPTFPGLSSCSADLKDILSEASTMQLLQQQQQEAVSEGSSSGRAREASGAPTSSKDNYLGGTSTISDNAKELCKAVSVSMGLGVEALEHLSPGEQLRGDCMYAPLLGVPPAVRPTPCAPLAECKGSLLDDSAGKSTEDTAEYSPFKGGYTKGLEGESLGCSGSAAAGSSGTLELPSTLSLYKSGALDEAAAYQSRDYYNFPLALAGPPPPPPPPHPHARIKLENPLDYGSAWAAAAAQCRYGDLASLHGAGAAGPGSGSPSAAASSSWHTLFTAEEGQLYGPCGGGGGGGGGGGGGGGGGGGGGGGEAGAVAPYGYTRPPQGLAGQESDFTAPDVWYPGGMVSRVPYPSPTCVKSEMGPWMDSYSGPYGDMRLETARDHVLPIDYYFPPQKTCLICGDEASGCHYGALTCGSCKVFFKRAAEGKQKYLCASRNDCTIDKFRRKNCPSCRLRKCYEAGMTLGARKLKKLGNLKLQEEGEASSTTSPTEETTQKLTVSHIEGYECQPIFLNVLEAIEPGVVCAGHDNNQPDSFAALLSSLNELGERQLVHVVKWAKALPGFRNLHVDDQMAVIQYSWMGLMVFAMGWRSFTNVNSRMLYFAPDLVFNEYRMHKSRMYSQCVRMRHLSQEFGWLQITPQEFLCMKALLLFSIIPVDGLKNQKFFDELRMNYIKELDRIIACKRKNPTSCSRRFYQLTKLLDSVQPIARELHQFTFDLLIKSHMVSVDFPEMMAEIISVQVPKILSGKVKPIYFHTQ
Assay: Androgen Receptor ELISA assay (PathScan AR ELISA) in VCaP cells: AR degradation, Dmax and DC50
Type: cell-based
Conditions: VCaP cells; Table 35; read-out: VCaP DC50
Catalogue of molecules with associated DC50

{"columns": ["MOLECULE", "DC50"],
 "data": [
  ["Cc1ncsc1-c1ccc([C@H](C)NC(=O)[C@@H]2C[C@@H](O)CN2C(=O)C(NC(=O)COCCCCCNc2ccc(C(=O)N[C@H]3C(C)(C)[C@@H](Oc4ccc(C#N)c(Cl)c4)C3(C)C)cc2)C(C)(C)C)cc1 (stereo partly drawn)", "> 501 nM"],
  ["Cc1ncsc1-c1ccc([C@H](C)NC(=O)[C@@H]2C[C@@H](O)CN2C(=O)[C@@H](NC(=O)CNC(=O)c2ccc(Oc3ccc(C(=O)N[C@H]4C(C)(C)[C@H](Oc5ccc(C#N)c(Cl)c5)C4(C)C)cn3)cc2)C(C)(C)C)nc1", "> 501 nM"],
  ["Cc1ncsc1-c1ccc([C@H](C)NC(=O)[C@@H]2C[C@@H](O)CN2C(=O)[C@@H](NC(=O)COCC2CCN(c3ccc(C(=O)N[C@H]4C(C)(C)[C@H](Oc5ccc(C#N)c(Cl)c5)C4(C)C)cn3)CC2)C(C)(C)C)cc1", "< 50 nM"],
  ["CC(C)(C)[C@H](NC(=O)COCCCCCNc1ccc(C(=O)N[C@H]2C(C)(C)[C@H](Oc3ccc(C#N)c(Cl)c3)C2(C)C)cc1)C(=O)N1C[C@H](O)C[C@H]1C(=O)NCc1ccc(-c2nnn[nH]2)cc1", "> 501 nM"],
  ["CC(C)(C)[C@H](NC(=O)COCCCCCNc1ccc(C(=O)N[C@H]2C(C)(C)[C@H](Oc3ccc(C#N)c(Cl)c3)C2(C)C)cc1)C(=O)N1C[C@H](O)C[C@H]1C(=O)NCc1ccc(C2=CCNCC2)cc1", "> 501 nM"],
  ["Cc1ncsc1-c1ccc([C@H](C)NC(=O)[C@@H]2C[C@@H](O)CN2C(=O)[C@@H](NC(=O)COCCOc2ccc(-c3ccc(C(=O)N[C@H]4C(C)(C)[C@H](Oc5ccc(C#N)c(Cl)c5)C4(C)C)cc3)cc2)C(C)(C)C)cc1", "< 50 nM"],
  ["COC(=O)[C@@H]1C[C@@H](O)CN1C(=O)[C@@H](NC(=O)COCCCCCOc1ccc(C(=O)N[C@H]2C(C)(C)[C@H](Oc3ccc(C#N)c(Cl)c3)C2(C)C)cc1)C(C)(C)C", "< 50 nM"],
  ["CC(C)(C)[C@H](NC(=O)COCCNc1ccc(-c2ccc(C(=O)N[C@H]3C(C)(C)[C@H](Oc4ccc(C#N)c(Cl)c4)C3(C)C)cc2)cc1)C(=O)N1C[C@H](O)C[C@H]1C(=O)NCc1ccc(C#N)cc1", "< 50 nM"],
  ["Cc1ncsc1-c1ccc(CNC(=O)[C@@H]2C[C@H](O)CN2C(=O)[C@@H](NC(=O)COCCOc2ccc(-c3ccc(C(=O)N[C@H]4C(C)(C)[C@H](Oc5ccc(C#N)c(Cl)c5)C4(C)C)cc3)cc2)C(C)(C)C)cc1", "> 501 nM"]
]}
